Listing of pIC50 toward UniProt:P43403, each taken from a published source.
pIC50: −log10 of the molar value.

# example entries with known answers
STRUCTURE AS SMILES: O=Cc1c[nH]c2nccc(Cl)c12
pIC50: ≥ 5.00
//
STRUCTURE AS SMILES: CN1CCN(CCCNc2nccn3nc(Nc4cccc(C(F)(F)F)c4)nc23)CC1
pIC50: 4.30 to 5.52

Provide pIC50 values for the following items, in order.
1. Cn1cc(-c2ccnc3cc(-c4cccc(N)c4)oc23)cn1
2. COc1cc(-c2cc3nccc(-c4cccc5[nH]ncc45)c3o2)cc(OC)c1OC
3. O=C(c1ccccc1)c1c[nH]c2c1cc(Br)c[n+]2[O-]

1: 4.30 to 5.52; 2: 4.30 to 5.52; 3: ≥ 5.00

List the reported pIC50 of each compound below.
1. COc1cccc(C(=O)c2c[nH]c3ncc(-c4cccnc4)cc23)c1
2. COc1cc(Nc2nccc(-c3ccc(NCCN)nc3)n2)cc(OC)c1OC
3. Cc1cc(C)cc(Nc2nccn3nc(Nc4ccc(Sc5nccn5C)c(Cl)c4)nc23)c1
4. COCc1c[nH]c2ncccc12

1: ≥ 5.00; 2: 6.91; 3: 4.30 to 5.52; 4: ≥ 5.00

----------
pIC50: −log10 of the molar value.
Literature pIC50 values, system: Tyrosine-protein kinase ZAP-70 (Homo sapiens).

COMPOUND: COc1ccc(C(=O)c2c[nH]c3ncc(-c4cccc(/C=C/C(=O)O)c4)cc23)c(Cl)c1
pIC50: ≥ 5.00
//
COMPOUND: CC(C)c1ccc(Cc2c[nH]c3ncccc23)cn1
pIC50: ≥ 5.00
//
COMPOUND: O=C(NCc1ccncc1)c1cc2n(c1)CCCc1c(NC(=O)c3ccccc3)n[nH]c1-2
pIC50: 5.81

Count: 6. Required value per item: pIC50.
1. COc1cc(Nc2nccn3nc(Nc4ccc(Sc5nccn5C)c(Cl)c4)nc23)cc(OC)c1
2. c1ccc(Cn2ncc3ccc(Nc4nc5c(-c6cccnc6)nccn5n4)cc32)cc1
3. Clc1ccc(/C=C\c2c[nH]c3ncccc23)cn1
4. CN1CCN(c2ccc(Nc3nc4c(-c5cnc6ccccc6c5)nccn4n3)cc2)CC1
5. Cc1cc(C)cc(Nc2nccn3nc(Nc4ccc5cnn(Cc6ccccc6)c5c4)nc23)c1
6. CS(=O)(=O)c1ccc(CNCc2[nH]c3ncccc3c2-c2cccc(CO)c2)cc1

1: 4.30 to 5.52; 2: 4.30 to 5.52; 3: ≥ 5.00; 4: 4.30 to 5.52; 5: 4.30 to 5.52; 6: ≥ 5.00

Please give pIC50 for each item listed below.
1. Clc1ccc(Cc2c[nH]c3nccc(-c4ccsc4)c23)cn1
2. COc1cc(-c2cc3nccc(-c4c(OC)cccc4OC)c3o2)cc(OC)c1OC
3. NCCNc1nccn2nc(Nc3cccc(C(F)(F)F)c3)nc12
4. CS(=O)(=O)Nc1cccc(-c2cnc3[nH]cc(C(=O)c4cc(O)ccc4F)c3c2)c1
5. Cc1c(Nc2ccnc3cc(-c4ccc(CO)cc4)oc23)ccc2[nH]ccc12
6. O=S(=O)(NCc1c[nH]c2ncccc12)c1ccc(-c2cccc(CO)c2)cc1

≥ 5.00
4.30 to 5.52
4.30 to 5.52
≥ 5.00
> 6.52
≥ 5.00

Give measured pIC50 for every item shown.
1. COc1ccc(F)c(C(=O)c2c[nH]c3ncc(-c4cccc(/C=C/C(=O)O)c4)cc23)c1
2. COCCCNc1nccn2nc(Nc3cccc(C)c3)nc12
3. CN1CCN(c2ccc(Nc3nc4c(-c5cnn(C)c5)nccn4n3)cc2)CC1
4. O=S(=O)(NCc1c[nH]c2ncccc12)c1ccc(O)cc1
5. COCC(O)Cn1cc(-c2ccnc3cc(-c4cc(OC)c(OC)c(OC)c4)oc23)cn1 (stereo not shown)
6. COc1ccc(OC)c(S(=O)(=O)NCc2c[nH]c3ncccc23)c1

1: ≥ 5.00; 2: 4.30 to 5.52; 3: 4.30 to 5.52; 4: ≥ 5.00; 5: 4.30 to 5.52; 6: ≥ 5.00

Please state pIC50 for every compound in the list that follows.
1. O=C1Cc2cc(Nc3nc4c(-c5cnc6ccccc6c5)nccn4n3)ccc2N1
2. Cn1ccnc1Sc1ccc(Nc2nc3c(Cl)nccn3n2)cc1Cl
3. COc1cc(Nc2nccc(-c3ccc(NCCCN)nc3)n2)cc(OC)c1OC
4. Cc1cc(C)cc(Nc2nc3c(Cl)nccn3n2)c1
5. O=S(=O)(c1ccsc1)N1CCN(Cc2c[nH]c3ncccc23)CC1
6. FC(F)(F)c1cccc(Nc2nc3c(NCCCN4CCOCC4)nccn3n2)c1
7. COc1cc(OC)cc(-c2nccn3nc(Nc4ccc(Sc5nccn5C)c(Cl)c4)nc23)c1

4.30 to 5.52
4.30 to 5.52
7.17
5.52 to 6.52
≥ 5.00
5.52 to 6.52
4.30 to 5.52
